Ref: the supplement of paper PMC12455559

method summary: PET hydrolysis, aromatic products released after 48 h (umol product/mg enzyme); higher = more PET depolymerization activity
measurement context: substrate: cryPow; 60 °C; pH 4.5
outcome measure: PET hydrolysis

# biosequence, PET hydrolysis
data = [
    ("MAENPYERGPAPTTSSIEASRGSFATSTVTVSRLAVSGFGGGTIYYPTSTTAGTFGAISIAPGFTALQSSIAWLGPRLASQGFVVFTIDTLTTSDQPDSRGRQLLAALDYLTQQSSVRSRIDSSRLGVVGHSMGGGGTLEAARSRPSLQAAIPLTGWNLTKTWSTVRVPTLVVGAQADTVAPVASHSIPFYNSLPSSLDKAYLELRGASHFAPNSSNTTIAKYTLSWLKRFIDNDTRYEQFLCPIPSTSLSISDYRGNCPHNG [TEP182]", "< 3"),
]

# query: PET hydrolysis of entry ATPDHAATADHASAHHHAAYPVSQQTIPATDGTGFGAATLYAPQGTGRKTLGAIVVAPGLKGDQSDLAWLAQDLAGEGFIVLNMDTLGKYDLPNQRSYEMLAAAKYLATASSVKDQVDPADIGVVGYSLGGGGALQAAVEQHGLKAAVALMPYDFPAGTTDPYKPTESPTYPGITTPTLVITGQADTTAPAASMGKPAYDSIPASTPKQYLELRGADHLAARATTNGTVRDAVTNFLKVYLDGNSAYRKYVCPAPPTSAAISESASSCPR [ESM174]
< 3

---

method summary: purified protein yield per well (BCA); higher = higher soluble expression
outcome measure: purified protein yield per well (µg)
Answer format: numeric, µg implied, no suffix.

Consider the sequence shown here: ATGPSSPCTNCTRGPNPTVAALKSNSGPFSTAKFSVSGYLKGFGDSTVYYPTNTTGKMGAIAVIPGYLSYESSIEWWGPRLASHGFVVITMNTNTIYDQPDSRATQLSKALDYVIAQSNSSSSPIAGKVDSTRLGAIGWSMGGGGSLKLSTQRSLNAIIPQAPYYAGSNSFNTIKTPTLILACGVDAVAPVAAHASPFYNKIPNTTPKAFLEIYGGSHFCANSGYPNQDLLGMYGISWMKRFIDFDKRYSQFLCGPNHQADLAISEYRQNCNY [ESM048] What is its recorded purified protein yield per well?
48

---

method summary: PET hydrolysis, aromatic products released after 48 h (umol product/mg enzyme); higher = more PET depolymerization activity
measurement context: substrate: aFilm; 60 °C; pH 7.5
outcome measure: PET hydrolysis
Hey, just send me the number, nothing else.

What value of PET hydrolysis has been reported for the following sequence? CVTPAPPPAPDVATVTVGAGNGFGGGTIYYPQGATGRLPVVAASPGFTENQNAVGWYGPLLAREGNIVITIDTNSPFDSPTSRADQLLAAIDYVVNRSSVASIADGSRTAVMGHSMGGGGSLEAALKRPGLKAIIPLAPWNTTTNFSGVRVPTLIVGCQNDAIAPVGSHAEPFYQSIPATTPKAYLEIAGGDHFCTNSENPTIANYVVAWTDRFLQGDTSASSRLCPPPPAGGSISEYRANCPY [ESM050]
10.5

---

Quick reference: PET hydrolysis of the listed items.
method summary: PET hydrolysis, aromatic products released after 48 h (umol product/mg enzyme); higher = more PET depolymerization activity
measurement context: substrate: cryPow; 60 °C; pH 8.5

# biosequence, PET hydrolysis
rows = [
    ("ADNPYQRGPNPTQASIAANRGTFATAETSVGGGNGFGGAKIYYPTDTSQGTFGAIAVSPGYTATWAAEGAWMGHWLASFGFVVIGIDTINRNDREYARGTQLLAALDYLTQRSSVRTRVDPNRLAVMGHSMGGGGTISAALRRPTLKAAIGLAPYYPSQSTSGMQVPTMLLAGQNDGTSTPASIVTFYNDIPASTEKVYLELTGAGHGFPTSNNSVVTRKVIPWMKIFIDQDTRYTQFLCPLQDLTGIRTYRNSCPLLPNDPGTTFSLAGSASGKCADVPGRVQTNGTGLIIWTCNNAGNQQWTQTPAGELRIYGNTKCMDANASGQGARVTINTCNGGNSQKWTVNTNGTVTNAASGRCLDAGGTADNSPVVVNTCNAASGQTWTKRP [DP047]", "< 3"),
    ("ADNPYERGPDPTERSIEAARGPFGVSTERVGSLGVSDFGGATIYHPTDRSQTYGAIAISPGFTAGWTSLSWLGERLASQGFVVIGIDTITRLDQPGSRGRQLLAALDYATTRSNARALIDAQRLAVAGHSMGGGGTLEAAAERPSLKAAIPLAPWNLDKSWAEVRTPTLIIGGESDNIAAVNTHSIPFYNSLSNAREKAYMEIDNGTHFFPNTANTLMAKYMISWMKRYIDDDTRYEQFLCPPPDDRGISEYRHTCPGS [DP088]", "< 3"),
]

// switching to the query sequence
Please report the recorded PET hydrolysis for STRNQEPTLQSIEAARGPYEIATQSVPPAVNTGFGGGTIYYPATTGAGKFGAVALSPGYMEKEYSFSWLGTRLASQGFVVFIINTQNSEEFPSARTDELLASLNYLTQTSEVRDRVDPNRLAVMGHSMGGGAALEAAEKNQSLRAVISMTPWNIKTTYSDIKTPTLIIGAQYDNIAPVHDHAQPSYASLPNDLAKSYLELRNGNHFSPNMENTAIARSSTVWLKRFVDGDTRYNKFICPGPTVGDEFNIVQSNCPIL [DP079] .
< 3
